meta.source: the supplement of paper PMC6555819

System: RXRa DBDmut IVT, anti-RXR (DBD mutation: RXRa K156A/R161A, NR concentration 90 nM)
Test: PBM binding z-score (relative to random genomic background probes); higher = stronger binding; sequences stand for … in GC…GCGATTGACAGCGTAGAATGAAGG
For each record, write down the corresponding PBM binding z-score.
Output: the number by itself.

(Q) Query PBM binding z-score for TCGAGTAGGTTACGGGGGCATTCAGGGATGAAGA
(A) 1.79

(Q) Query PBM binding z-score for CGTCCAAGGTCAGCAGGTCAGAGAAAGCGACGTG
(A) 2.55

(Q) Query PBM binding z-score for ATATGTAGGTTAGCTGGCGTCATTCAGACTAGGC
(A) -0.166

(Q) Query PBM binding z-score for CGAACTAGGTCACCAGCACAGTGAAGAGGTTGGA
(A) 1.35

(Q) Query PBM binding z-score for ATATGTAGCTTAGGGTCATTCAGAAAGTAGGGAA
(A) 2.16

(Q) Query PBM binding z-score for TTACCAAGGTAAAAGGTCGTTGATGCACGCCTTG
(A) 0.317

(Q) Query PBM binding z-score for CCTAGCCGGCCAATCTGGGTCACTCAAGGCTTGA
(A) -0.259

(Q) Query PBM binding z-score for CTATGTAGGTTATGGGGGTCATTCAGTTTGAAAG
(A) 2.33

(Q) Query PBM binding z-score for AGTCAAAGTTCATCTAGGTATCGTAAGATATGCT
(A) 4.54

(Q) Query PBM binding z-score for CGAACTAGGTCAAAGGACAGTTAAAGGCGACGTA
(A) 1.67

(Q) Query PBM binding z-score for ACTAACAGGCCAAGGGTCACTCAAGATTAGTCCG
(A) 1.23

(Q) Query PBM binding z-score for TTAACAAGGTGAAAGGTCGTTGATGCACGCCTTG
(A) 0.328

(Q) Query PBM binding z-score for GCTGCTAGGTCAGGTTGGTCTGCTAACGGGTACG
(A) 0.755

(Q) Query PBM binding z-score for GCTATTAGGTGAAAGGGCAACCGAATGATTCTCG
(A) 0.924

(Q) Query PBM binding z-score for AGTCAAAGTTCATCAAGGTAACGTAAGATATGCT
(A) 4.57

###

Test system: RXRa DBDmut IVT, anti-RXR (DBD mutation: RXRa K156A/R161A, NR concentration 90 nM)
Test: PBM binding z-score (relative to random genomic background probes); higher = stronger binding; sequences stand for … in GC…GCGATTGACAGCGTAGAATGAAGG
VALUE_KIND: PBM binding z-score
Output: the number by itself.

(Q) Query PBM binding z-score for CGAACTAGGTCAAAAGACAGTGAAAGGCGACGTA
(A) 1.21

(Q) Query PBM binding z-score for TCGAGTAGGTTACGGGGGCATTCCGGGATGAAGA
(A) 1.49

(Q) Query PBM binding z-score for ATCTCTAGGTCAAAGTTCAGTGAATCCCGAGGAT
(A) 2.65

(Q) Query PBM binding z-score for CGAACTGGGTCAAAGGACAGTGAAAGGCGACGTA
(A) 0.996

(Q) Query PBM binding z-score for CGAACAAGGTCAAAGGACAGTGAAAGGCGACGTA
(A) 3.59

(Q) Query PBM binding z-score for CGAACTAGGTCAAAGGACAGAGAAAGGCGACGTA
(A) 1.73

###

Test system: RARa:RXR (NR concentration 270 nM, RXRa partner concentration 90 nM)
Assay: PBM binding z-score (relative to random genomic background probes); higher = stronger binding; sequences stand for … in GC…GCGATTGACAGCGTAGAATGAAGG
For each record, write down the corresponding PBM binding z-score.
Output: the number by itself.

(Q) Query PBM binding z-score for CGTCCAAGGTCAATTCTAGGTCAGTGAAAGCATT
(A) 6.11

(Q) Query PBM binding z-score for CAGCCTAGGTGAGGGCCAGTATAGGAGGAACGTT
(A) -0.402

(Q) Query PBM binding z-score for CCTACAGGGCCAAGGTCATTGATCAGTCAAAGCA
(A) 3.67

(Q) Query PBM binding z-score for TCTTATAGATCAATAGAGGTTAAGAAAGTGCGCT
(A) 1.99

(Q) Query PBM binding z-score for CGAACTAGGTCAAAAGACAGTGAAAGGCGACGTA
(A) 1.45

(Q) Query PBM binding z-score for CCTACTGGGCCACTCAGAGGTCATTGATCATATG
(A) 4.46

(Q) Query PBM binding z-score for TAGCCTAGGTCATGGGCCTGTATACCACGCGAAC
(A) 3.17

(Q) Query PBM binding z-score for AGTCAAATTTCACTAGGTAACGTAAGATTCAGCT
(A) 0.0458

(Q) Query PBM binding z-score for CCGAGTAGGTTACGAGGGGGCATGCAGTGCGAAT
(A) 2.98

(Q) Query PBM binding z-score for TGGCCTAGGTCATGCGGGCCAGTATAGTGTCGGC
(A) 2.07

(Q) Query PBM binding z-score for CCTACTGGGCCAAAAAGGCCATTGATGCCGATAA
(A) -0.0899

(Q) Query PBM binding z-score for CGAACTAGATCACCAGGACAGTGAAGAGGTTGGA
(A) -0.108

(Q) Query PBM binding z-score for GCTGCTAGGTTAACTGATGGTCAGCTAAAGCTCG
(A) 0.512

(Q) Query PBM binding z-score for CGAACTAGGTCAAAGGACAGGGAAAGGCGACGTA
(A) 2.37

(Q) Query PBM binding z-score for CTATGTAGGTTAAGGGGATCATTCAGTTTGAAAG
(A) 0.816

(Q) Query PBM binding z-score for CGAACTAGGTCACCAGGACAGGGAAGAGGTTGGA
(A) 2.58

(Q) Query PBM binding z-score for CCGAGTAGATTACGAGGGGGCATTCAGTGCGAAT
(A) 1.79

(Q) Query PBM binding z-score for CAAACTAGGTCACCGGAAGGTCATAGTCCGCATG
(A) 6.36

(Q) Query PBM binding z-score for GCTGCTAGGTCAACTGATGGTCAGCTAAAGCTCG
(A) 3

(Q) Query PBM binding z-score for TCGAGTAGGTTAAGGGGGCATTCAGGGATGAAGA
(A) 2.87

###

For each record, write down the corresponding PBM binding z-score.
Test system: LXRa homodimer (NR concentration 270 nM)
Experiment: PBM binding z-score (relative to random genomic background probes); higher = stronger binding; sequences stand for … in GC…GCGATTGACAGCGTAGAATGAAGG
Output: the number by itself.

(Q) Query PBM binding z-score for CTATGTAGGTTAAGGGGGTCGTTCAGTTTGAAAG
(A) 0.932

(Q) Query PBM binding z-score for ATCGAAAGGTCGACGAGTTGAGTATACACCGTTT
(A) 0.0436

(Q) Query PBM binding z-score for AGTCAAAGTTCACTAGGCAACGTAAGATTCAGCT
(A) 2.72

(Q) Query PBM binding z-score for TATACAGGGTCAAAGGGCAGAGTACGAATGTCGA
(A) 3.16

(Q) Query PBM binding z-score for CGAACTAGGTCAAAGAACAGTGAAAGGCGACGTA
(A) -0.252

(Q) Query PBM binding z-score for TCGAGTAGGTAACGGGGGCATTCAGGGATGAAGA
(A) 0.159

(Q) Query PBM binding z-score for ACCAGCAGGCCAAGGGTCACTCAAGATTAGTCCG
(A) -0.066

(Q) Query PBM binding z-score for CTATGTAGGTTAAGGGGGTCATTAAGTTTGAAAG
(A) 2.21

(Q) Query PBM binding z-score for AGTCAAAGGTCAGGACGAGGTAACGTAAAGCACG
(A) 0.926

(Q) Query PBM binding z-score for GCTAGTTTGTCAGTAAAAGGTCACACACCGGTCG
(A) 4.39

(Q) Query PBM binding z-score for ATATGAAGGTTAGGGTCATTCAGAAAGTAGGGAA
(A) 1.26

(Q) Query PBM binding z-score for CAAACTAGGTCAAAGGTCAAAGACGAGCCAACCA
(A) 5.15

(Q) Query PBM binding z-score for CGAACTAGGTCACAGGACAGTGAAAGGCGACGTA
(A) -0.102

(Q) Query PBM binding z-score for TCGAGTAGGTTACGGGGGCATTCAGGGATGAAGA
(A) 0.777

(Q) Query PBM binding z-score for AGTCAAAGTTGATCTAGGTAACGTAAGATATGCT
(A) -0.431

(Q) Query PBM binding z-score for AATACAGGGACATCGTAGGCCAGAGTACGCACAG
(A) 0.107

(Q) Query PBM binding z-score for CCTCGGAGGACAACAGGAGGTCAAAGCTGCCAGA
(A) 5.15

(Q) Query PBM binding z-score for CGTCCAAGGTCAAGGGCAGTGAAAGAGACTCGAA
(A) 0.283

(Q) Query PBM binding z-score for CAAACTAGGTCAAAGGTCAAAGCCGAGCCAACCA
(A) 5.21

(Q) Query PBM binding z-score for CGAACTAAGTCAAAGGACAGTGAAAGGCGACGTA
(A) -0.153

(Q) Query PBM binding z-score for TCTTGTAGATCAAAGGTCAAGAAAGCCGAAGCCT
(A) 2.41

(Q) Query PBM binding z-score for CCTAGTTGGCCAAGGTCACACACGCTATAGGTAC
(A) 1.6

(Q) Query PBM binding z-score for TAGCCAAGGTCAGATCGGGCCAGTATACGCTATA
(A) -0.0844
